experiment: Liver microsome stability; type: in vitro ADME, human; conditions: human, microsomes; Table 7; read-out: CLint(liver)
Observed property: CLint scaled (mL/min/kg)
Field format: number, assumed mL/min/kg, no unit text.

# input What CLint scaled value was documented for this molecule, C[C@]12CC[C@H]3[C@@H](CCC4=CC(=O)CC[C@@]43C)[C@@H]1CC[C@@H]2O [Testosterone] ?
# output 77.2

###

Recorded S/N, one value per entry.
test system: HEK293/CRE-Luc cells; experiment: Luciferase reporter assay, HEK293/CRE-Luc cells without GLP1R (Example 17); format: cell-based, human; conditions: HEK293/CRE-Luc cells without hGLP1R; payloads and linker-payloads
Where a SMILES comes first, the peptide text is derived from it. [ ]: non-standard residue; d: D form. The star is where a group is joined. Bip(2'-Et,4'-O(CH2)4NH2) = CCc1cc(OCCCCN)ccc1-c1ccc(C[C@H](N)C(=O)O)cc1; Nva(5-(3,5-Me2Ph)) = Cc1cc(C)cc(CCC[C@H](N)C(=O)O)c1; Ala(1H-tetrazol-5-yl) = N[C@@H](Cc1nnn[nH]1)C(=O)O; αMePhe(2-F) = C[C@](N)(Cc1ccccc1F)C(=O)O; X8 = O=C([C@H]1CCN(CCc2cnc[nH]2)C1)*; X3 = CC(C)(C(=O)*)c1ccn[nH]1; X4 = CC(C)(C(=O)O)C(=O)*
Could you keep your reply to the number by itself?

Example entries begin here.
CCc1cc(OCCCCN)ccc1-c1ccc(C[C@H](NC(=O)[C@H](CC(=O)O)NC(=O)[C@H](CO)NC(=O)[C@@H](NC(=O)[C@](C)(Cc2ccccc2F)NC(=O)[C@@H](NC(=O)CNC(=O)[C@H](Cc2nn[nH]n2)NC(=O)C(C)(C)C(=O)O)[C@@H](C)O)[C@@H](C)O)C(=O)N[C@@H](CCCc2cc(C)cc(C)c2)C(N)=O)cc1 [P3] (X4-[Ala(1H-tetrazol-5-yl)]GT[αMePhe(2-F)]TSD[Bip(2'-Et,4'-O(CH2)4NH2)][Nva(5-(3,5-Me2Ph))]-NH2): 1.2
CCc1cc(OCCCCN)ccc1-c1ccc(C[C@H](NC(=O)[C@H](CC(=O)O)NC(=O)[C@H](CO)NC(=O)[C@@H](NC(=O)[C@](C)(Cc2ccccc2F)NC(=O)[C@@H](NC(=O)CNC(=O)[C@H](Cc2nn[nH]n2)NC(=O)[C@H]2CCN(CCc3cnc[nH]3)C2)[C@@H](C)O)[C@@H](C)O)C(=O)N[C@@H](CCCc2cc(C)cc(C)c2)C(N)=O)cc1 [P16] (X8-[Ala(1H-tetrazol-5-yl)]GT[αMePhe(2-F)]TSD[Bip(2'-Et,4'-O(CH2)4NH2)][Nva(5-(3,5-Me2Ph))]-NH2): 1.1
CCc1cc(OCCCCN)ccc1-c1ccc(C[C@H](NC(=O)[C@H](CC(=O)O)NC(=O)[C@H](CO)NC(=O)[C@@H](NC(=O)[C@](C)(Cc2ccccc2F)NC(=O)[C@@H](NC(=O)CNC(=O)[C@H](CCC(N)=O)NC(=O)C(C)(C)C(=O)NCCc2cnc[nH]2)[C@@H](C)O)[C@@H](C)O)C(=O)N[C@@H](CCCc2cc(C)cc(C)c2)C(N)=O)cc1 [P21]: 1.3
CCc1cc(OCCCCN)ccc1-c1ccc(C[C@H](NC(=O)[C@H](CC(=O)O)NC(=O)[C@H](CO)NC(=O)[C@@H](NC(=O)[C@](C)(Cc2ccccc2F)NC(=O)[C@@H](NC(=O)CNC(=O)[C@H](Cc2nn[nH]n2)NC(=O)C(C)(C)c2ccn[nH]2)[C@@H](C)O)[C@@H](C)O)C(=O)N[C@@H](CCCc2cc(C)cc(C)c2)C(N)=O)cc1 [P6] (X3-[Ala(1H-tetrazol-5-yl)]GT[αMePhe(2-F)]TSD[Bip(2'-Et,4'-O(CH2)4NH2)][Nva(5-(3,5-Me2Ph))]-NH2): 1.0
CCc1cc(OCCCCN)ccc1-c1ccc(C[C@H](NC(=O)[C@H](CC(=O)O)NC(=O)[C@H](CO)NC(=O)[C@@H](NC(=O)[C@](C)(Cc2ccccc2F)NC(=O)[C@@H](NC(=O)CNC(=O)[C@H](Cc2nn[nH]n2)NC(=O)C2(C)CCN(CCc3cnc[nH]3)C2=O)[C@@H](C)O)[C@@H](C)O)C(=O)N[C@@H](CCCc2cc(C)cc(C)c2)C(N)=O)cc1 (stereo in doubt) [P14]: 1.6

# input What S/N value was documented for this compound, CCc1cc(OCCCCNC(=O)[C@H](CO)NC(=O)CNC(=O)CNC(=O)CNC(=O)CNC(=O)CCC(=O)N2Cc3ccccc3C#Cc3ccccc32)ccc1-c1ccc(C[C@H](NC(=O)[C@H](CC(=O)O)NC(=O)[C@H](CO)NC(=O)[C@@H](NC(=O)[C@](C)(Cc2ccccc2F)NC(=O)[C@@H](NC(=O)CNC(=O)[C@H](Cc2nn[nH]n2)NC(=O)C(C)(C)C(=O)NCCc2cnc[nH]2)[C@@H](C)O)[C@@H](C)O)C(=O)N[C@@H](CCCc2cc(C)cc(C)c2)C(=O)Nc2ccccc2)cc1 [LP15, DIBAC- suc-G4S- P23] ?
# output 1.5

# input What S/N value was documented for this compound, CCc1cc(OCCCCN)ccc1-c1ccc(C[C@H](NC(=O)[C@H](CC(=O)O)NC(=O)[C@H](CO)NC(=O)[C@@H](NC(=O)[C@](C)(Cc2ccccc2F)NC(=O)[C@@H](NC(=O)CNC(=O)[C@H](Cc2nn[nH]n2)NC(=O)[C@H](C)NC(=O)[C@H](Cc2c[nH]cn2)NC(=O)[C@@H](N)CCC(N)=O)[C@@H](C)O)[C@@H](C)O)C(=O)N[C@@H](CCCc2cc(C)cc(C)c2)C(N)=O)cc1 [P13] (H-QHA[Ala(1H-tetrazol-5-yl)]GT[αMePhe(2-F)]TSD[Bip(2'-Et,4'-O(CH2)4NH2)][Nva(5-(3,5-Me2Ph))]-NH2) ?
# output 1.2

# input What S/N value was documented for this compound, CCc1cc(OCCCCn2cc(COCCOCCOCCOCCOCCOCCOCCOCCN)nn2)ccc1-c1ccc(C[C@H](NC(=O)[C@H](CC(=O)O)NC(=O)[C@H](CO)NC(=O)[C@@H](NC(=O)[C@](C)(Cc2ccccc2F)NC(=O)[C@@H](NC(=O)CNC(=O)[C@H](Cc2nn[nH]n2)NC(=O)C(C)(C)C(=O)NCCc2cnc[nH]2)[C@@H](C)O)[C@@H](C)O)C(=O)N[C@@H](CCCc2cc(C)cc(C)c2)C(N)=O)cc1 [M3190] ?
# output 1.3

# input What S/N value was documented for this compound, CCc1cc(OCCCCN)ccc1-c1ccc(C[C@H](NC(=O)[C@H](CC(=O)O)NC(=O)[C@H](CO)NC(=O)[C@@H](NC(=O)[C@](C)(Cc2ccccc2F)NC(=O)[C@@H](NC(=O)CNC(=O)[C@H](Cc2nn[nH]n2)NC(=O)C(C)(C)C(=O)NCCc2cnc[nH]2)[C@@H](C)O)[C@@H](C)O)C(=O)Nc2ccccc2)cc1 [P22] ?
# output 1.5
